Catalogue of compounds with associated Plant response rating, Barnyardgrass
Test system: barnyardgrass
Assay: Test F flood (paddy) test
Assay type: in vivo, Echinochloa crus-galli
Conditions: 250 g ai/ha, 21 d, scale 0-100
REPORTED_ENDPOINT: Plant response rating, Barnyardgrass

[[record]]
compound = "O=C1NC[C@H](c2cccc(C(F)(F)F)c2)[C@H]1C(=O)Nc1cccc(F)c1F"
target_or_system = "barnyardgrass"
reported_endpoint = "Plant response rating, Barnyardgrass"
measured = 100

[[record]]
compound = "O=C1NCC(c2ccc(F)c(F)c2)C1C(=O)Nc1ccccc1Cl (racemic)"
target_or_system = "barnyardgrass"
reported_endpoint = "Plant response rating, Barnyardgrass"
measured = 50

[[record]]
compound = "CN1CC(c2ccc(F)c(F)c2)C(C(=O)Nc2cccc(F)c2F)C1=O (stereo not shown)"
target_or_system = "barnyardgrass"
reported_endpoint = "Plant response rating, Barnyardgrass"
measured = 100

[[record]]
compound = "O=C1NC[C@H](c2cccc(C(F)(F)F)c2)[C@H]1C(=O)Nc1ccccc1F"
target_or_system = "barnyardgrass"
reported_endpoint = "Plant response rating, Barnyardgrass"
measured = 100


* * *

Catalogue of compounds with associated Plant response rating, Morningglory
System: morningglory
Assay: Test A pre-/postemergence herbicide test
Assay type: in vivo, Ipomoea spp.
Conditions: preemergence, 500 g ai/ha; 0 to 100 scale
REPORTED_ENDPOINT: Plant response rating, Morningglory

[[record]]
compound = "O=C1NCC(c2ccc3c(c2)OC(F)(F)O3)C1C(=O)Nc1ccccc1F (stereo not shown)"
measured = 0

[[record]]
compound = "O=C1NCC(c2cc(F)c(F)c(F)c2)C1C(=O)Nc1cccc([N+](=O)[O-])c1 (stereo not shown)"
measured = 0

[[record]]
compound = "O=C1NCC(c2ccc(F)c(F)c2)C1C(=O)Nc1cccc(F)c1F (racemic)"
measured = 50

[[record]]
compound = "O=C1NCC(c2ccccc2)C1C(=O)Nc1ccc(Br)cc1F (racemic)"
measured = 0


* * *

Tested on: blackgrass
Test: Test A postemergence herbicide test
Type: in vivo, Alopecurus myosuroides
Details: 500 g ai/ha, 0 to 100 scale (0 no effect, 100 complete control)
REPORTED_ENDPOINT: Plant response rating, Blackgrass

[[record]]
molecule = "CSc1cccc(C2CNC(=O)C2C(=O)Nc2ccccc2Cl)c1 (stereo not drawn) [Compound 291]"
measured = 0

[[record]]
molecule = "O=C1NCC(c2ccc(F)c(F)c2)C1C(=O)Nc1ccc(F)c(F)c1F (stereo not drawn) [Compound 346]"
measured = 50

[[record]]
molecule = "O=C1NCC(c2cccc(Oc3ccccc3)c2)C1C(=O)Nc1ccc(F)cc1F (stereo not drawn) [Compound 331]"
measured = 30

[[record]]
molecule = "O=C1NCC(c2cnn(CC(F)(F)F)c2)C1C(=O)Nc1ccccc1C(F)(F)F (stereo not drawn) [Compound 300]"
measured = 0

[[record]]
molecule = "O=C1NCC(c2ccc(Br)c(Br)c2)C1C(=O)Nc1ccccc1F (stereo not drawn) [Compound 339]"
measured = 0

[[record]]
molecule = "CC(C)c1cccc(C2CNC(=O)C2C(=O)Nc2ccccc2C(F)(F)F)c1 (stereo not drawn) [Compound 320]"
measured = 20

[[record]]
molecule = "CSc1cccc(C2CNC(=O)C2C(=O)Nc2cccc(F)c2F)c1 (stereo not drawn) [Compound 289]"
measured = 0

[[record]]
molecule = "O=C1NCC(c2cccc(-n3cccn3)c2)C1C(=O)Nc1ccccc1C(F)(F)F (stereo not drawn) [Compound 338]"
measured = 0

[[record]]
molecule = "CN1CC(c2ccc(F)c(F)c2)C(C(=O)Nc2cccc(F)c2F)C1=O (stereo not drawn) [Compound 303]"
measured = 70

[[record]]
molecule = "O=C1NCC(c2ccc(Cl)s2)C1C(=O)Nc1ccccc1F (stereo not drawn) [Compound 292]"
measured = 0

[[record]]
molecule = "O=C1NCC(c2ccc(F)cc2)C1C(=O)Nc1ccccc1OC(F)F (racemic) [Compound 118]"
measured = 0

[[record]]
molecule = "CCN1CC(c2ccc(C(F)(F)F)cc2)C(C(=O)Nc2cccc(F)c2F)C1=O (stereo not drawn) [Compound 336]"
measured = 0


Ref: patent US10294202B2
